Test system: SF-295 CNS
Test: NCI tumour cell line growth inhibition, 48 h
# key: entry, value: TGI

| COMPOUND | TGI |
| --- | --- |
| CN(C)CCSc1nccc(-c2ccc(-c3ccnc(SCCN(C)C)n3)s2)n1 | 26 µM |
| CCN(CC)C(=O)c1ccc(C)c(N=NN(C)C)c1 | > 100 µM |
| Cc1nc(C)c(C(=O)NNC(=O)c2ccccc2)cc1C(=O)NNC(=O)c1ccccc1 | > 100 µM |
| COc1ccc(Cn2nc(OCc3ccccc3)c3cc([N+](=O)[O-])ccc32)cc1 | > 100 µM |
| CN(C)/C=C/C(=O)c1cccc(C(=O)/C=C/N(C)C)n1 | > 100 µM |
| Cc1cnc2cc(Cl)ccc2c1SCC(=O)O | > 100 µM |
| C[C@@H]1CC[C@H]2C(CN(C)CC3=C(C(F)(F)F)O[C@@H]4O[C@@]5(C)CC[C@H]6[C@H](C)CC[C@@H]3[C@@]46OO5)=C(C(F)(F)F)O[C@@H]3O[C@@]4(C)CC[C@@H]1[C@]32OO4 | > 51.5 µM |
| COc1ccc(OC)c(/C=C/C(=O)c2ccc(SC)cc2)c1 | 57 µM |
| CC(C)N(C(=O)C12C3C4C5C3C1(C(=O)N(C(C)C)C(C)C)C5C42)C(C)C (centres undefined) | > 100 µM |
